Target: BRD2_(bromo2) domain (amino acids 455–347) (UniProt P25440 347-455)
Sequence (P25440 347-455): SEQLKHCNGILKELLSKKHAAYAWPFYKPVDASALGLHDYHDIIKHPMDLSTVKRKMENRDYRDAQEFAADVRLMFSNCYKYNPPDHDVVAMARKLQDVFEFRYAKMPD
Assay: ITC
Where no end group is shown, it is not given here.
Assay readout: pKd
pKd here: minus log base 10 of the concentration, concentration in moles per litre.

AGGK(Ac)AGK(Ac)DSGK(Ac)AKTK [tri-acetylated H2A.Z (1–15) K4acK7acK11ac peptide] has a reported pKd of 2.70
